// data source = ChEMBL document CHEMBL1201862

Catalogue of GI50 readings, one per entry.
System: RXF 393
experiment.notes: NCI tumour cell line growth inhibition, 48 h
Active and inactive are the calls of the source. No stated cut-off is given here; in the data, active = GI50 up to about 1.1 µM and inactive = higher.

COC(=O)c1c(C#N)c(N)nc2c1CCC2 ... > 100 µM (inactive)

Here is another compound to look at.
Record for COC1=CC(=O)C2C(C1=O)C(c1ccccc1)[C@H]2C (stereo partly drawn) under target or system RXF 393: GI50 reported as > 100 µM (inactive)

* * *

Catalogue of GI50 readings, one per entry.
Tested on: UACC-62
experiment.notes: NCI tumour cell line growth inhibition, 48 h
Calls of active or inactive are those of the source. Cut-off read from the data, not from the text of the source: active = GI50 up to about 1.1 µM and inactive = higher.

C=C1CCC(O)C/C1=C/C=C1\CCCC2(C)C1CCC2C(C)CCCC(C)C (stereo not given) ... 18.8 µM (inactive)
O[C@@H]1C=C[C@]23CCN(Cc4cc5c(cc42)OCO5)[C@@H]3C1 ... > 100 µM (inactive)
O/N=C1/C(=C/c2ccc(Oc3ccccc3)cc2)CCCC1C(NO)c1ccc(Oc2ccccc2)cc1 (stereo not given) ... 43.9 µM (inactive)
COC(=O)C1=C(C)N2CCSC2(C)C(C(=O)OC)C1c1cccc(Cl)c1 (stereo not given) ... 12.8 µM (inactive)
Cc1c(/C=N/NC(=S)Nc2cccc(Cl)c2)c(=O)n(-c2ccccc2)n1C ... 30.7 µM (inactive)
C=C(C)[C@H]1CC23C(=O)C(C(=O)C(C)C)=C(O)[C@](C)(C[C@H]2C1(C)C)C3=O ... 16.3 µM (inactive)

Item: CC1=Nc2nc(Cl)cn2C(=O)C1(Cl)Cl | GI50: > 10 µM (inactive)

Item: c1ccc(P2c3ccccc3Nc3ccccc32)cc1 | GI50: 37.8 µM (inactive)

Item: O=C(/C=C/c1ccccc1)c1ccc(NCc2nc3ccccc3[nH]2)cc1 | GI50: 8.05 µM (inactive)

Item: O=C1CC[C@@H](NC(=O)Cc2ccccc2)C(=O)N1 | GI50: > 100 µM (inactive)
